Ref: the nanobody polyreactivity screen of Harvey et al. (2022)

Assay: yeast display, Sf9 membrane polyspecificity reagent, FACS + sequencing; frameworks hold sequencing errors
outcome-measure: polyreactivity (PSR sort gate)

query-sequence: QVQLVESGGGIVQAGGSLRLSCAASGITFAFYDMGWYRQAPGTERELVAAISYSGGGTYYADSVKGRFTISRDNAKNTVYLQMNSLKPEDTAVYYCAADPKTHPLFGEDYWGQGTQVTVSS
data-value: low polyreactivity
--
query-sequence: QVQVVESGGGLVQAGGSLRLSCAASGSIFGGYTMGWYRQAHGNERELVAGITISGGSTYYADSVKGRFTISRDTAKNTVYLQMNSLKPEDTAVYYCAAVSFVVSSWGYGYWGQGTQVTVSS
data-value: low polyreactivity
--
query-sequence: QVQLVESGGGLVQAGGSLRLSCAASGRIFDYYAMGWYRQAPGKERELVAAITSGGTTTYYADSVKGRFTNSRDNAKNTVYLQLNSLKPEDTAVYFCAKYPYHIYHTDGDYWGQGTQVTVSS
data-value: low polyreactivity
--
query-sequence: QVQLVESGGGLVQAGGSLRLSCAASGGTFDTYAMGWYRQAPGKERELVAGIDWSGGSTYYADSVKGRFTISRDYAKNTVYLQMNSLKPEDTAVYYCAADFYYPSQMDYWGQGTQVTVSS
data-value: low polyreactivity
--
query-sequence: QVQLVESGGGVVQAGRSLRLSCAASGRLFVRNAMGWYRQAPGKDRELVAAITSVGDTYYADSVKGRFTISRDNAKNTVYLQMNSLKPVDTAVYYCAVYLWSGWGYPEYNYWGQGTQVTVSS
data-value: low polyreactivity
--
query-sequence: QVQLVESGGGLVQAGGSLRLSCAASGITFRGYTMGWYRQAPGKERELVARIRSSDGSTYYADSVKGRFTISRDNAKNTVYLQMNSLKPEDTAVYYCNADRRGRALKYYSWGQGTQVTVSS
data-value: low polyreactivity
--
query-sequence: QVQLVESGGGLVQAGGSLRLSCAASVRTFSYYAMGWYRQAPGKERELVASISGGGRTNYADSVKGRFTISRDNAKKTVYLQMNSLKPEDTAVYYCAARYQITRQYKRGYWGQGNQVTVSS
data-value: high polyreactivity
--
query-sequence: QVQLVDSGGGLVQAGGSLRLSCAASGSTFDRNGMGWYRQAPGKERELVAAITRGGSTYYADSVKGRFTISRDNAKNTVYLQMNSLKPEDTAVYYCAKRYRGGYYYPYNYWGQGTQVTVSS
data-value: high polyreactivity
--
query-sequence: QVQREESVGGLVQAGVSLRLSCAASGLTLAPYAMGAYRQAPGKERELVAAITFSGGSTYYADSVKGRFTISRDNAKNTVYLQMNSLKPEDTAVYYCARDTWAYKYVYPYYSWGQGTQVTVSS
data-value: low polyreactivity
--
query-sequence: QVQLVESGGGLDQAGGSHRLSCAASGSTFYPYAMRWYRQAPGKERELVAGITVIDGSTYYADSVKGRFTMSRDNAKNPVYFQMNSLKPEDTAVYYCAVDGPNQVQEYGYWGQGTQVTVSS
data-value: low polyreactivity
--
query-sequence: QVQLEESGGGLVQAGGSLRLSCAASGITFRQYAMGWYRQAPGKERELVATISSGDDTYYADSVKGRFTISRDNAKNTVYLQMNSLKPEDTAVYYCAARYWTSIVRYRGDYWGQGTQVTVSS
data-value: high polyreactivity
